B1: TPR 5TU (parent)
chain: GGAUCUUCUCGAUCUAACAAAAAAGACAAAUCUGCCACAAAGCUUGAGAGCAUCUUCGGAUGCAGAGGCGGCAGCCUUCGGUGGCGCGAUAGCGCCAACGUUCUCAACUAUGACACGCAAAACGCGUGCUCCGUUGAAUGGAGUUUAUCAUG

Variants of: B1
MEASUREMENT PROTOCOL: polymerase ribozyme fitness, log enrichment relative to wild type (log ratio); higher = more active; in vitro selection for triplet polymerase activity
Fewer inactive variants are shown than the library holds.
List of polymerase ribozyme fitness (log ratio) values.

{"MUTATION DESCRIPTOR": "A40G G86A C95U C103G C108U C125G", "polymerase ribozyme fitness (log ratio)": "≤ -4.2"}
{"MUTATION DESCRIPTOR": "A30U A41C G70C C93G", "polymerase ribozyme fitness (log ratio)": "≤ -4.2"}
{"MUTATION DESCRIPTOR": "C93G A97G G140C A147U C149G", "polymerase ribozyme fitness (log ratio)": "≤ -4.2"}
{"MUTATION DESCRIPTOR": "U15A C32A U56G G58U G84U C108U U139G", "polymerase ribozyme fitness (log ratio)": "≤ -4.2"}
{"MUTATION DESCRIPTOR": "A17C A30G C79G C87G C96G C105A", "polymerase ribozyme fitness (log ratio)": "≤ -4.2"}
{"MUTATION DESCRIPTOR": "G46A C76A C96U G141C", "polymerase ribozyme fitness (log ratio)": "≤ -4.2"}
{"MUTATION DESCRIPTOR": "U77A C85U A91G G133C A142G", "polymerase ribozyme fitness (log ratio)": "≤ -4.2"}
{"MUTATION DESCRIPTOR": "U45A G46C U56A G84U G88U U90G C99A", "polymerase ribozyme fitness (log ratio)": "≤ -4.2"}
{"MUTATION DESCRIPTOR": "G74C C105U A107G", "polymerase ribozyme fitness (log ratio)": "≤ -4.2"}
{"MUTATION DESCRIPTOR": "A41C C85U C99G C132G U139A", "polymerase ribozyme fitness (log ratio)": "≤ -4.2"}
{"MUTATION DESCRIPTOR": "U55G G88U A97G U135G U148C", "polymerase ribozyme fitness (log ratio)": "≤ -4.2"}
{"MUTATION DESCRIPTOR": "G70A G86A A89G C99A", "polymerase ribozyme fitness (log ratio)": "≤ -4.2"}
{"MUTATION DESCRIPTOR": "A17C U102A", "polymerase ribozyme fitness (log ratio)": -0.663}
{"MUTATION DESCRIPTOR": "A22C U61A G88A A107C A110C C123G G140A", "polymerase ribozyme fitness (log ratio)": "≤ -4.2"}
{"MUTATION DESCRIPTOR": "G50C U104C C116A G143U", "polymerase ribozyme fitness (log ratio)": "≤ -4.2"}
{"MUTATION DESCRIPTOR": "G94U C96U", "polymerase ribozyme fitness (log ratio)": -0.719}
{"MUTATION DESCRIPTOR": "C85U U148A", "polymerase ribozyme fitness (log ratio)": -3.08}
{"MUTATION DESCRIPTOR": "A24U C131U", "polymerase ribozyme fitness (log ratio)": 2.4}
{"MUTATION DESCRIPTOR": "A23C C54U U55A G71A A122G", "polymerase ribozyme fitness (log ratio)": "≤ -4.2"}
{"MUTATION DESCRIPTOR": "A17U A52C A64C G133A A138C", "polymerase ribozyme fitness (log ratio)": "≤ -4.2"}
{"MUTATION DESCRIPTOR": "A12G U56A A60U G65U A91U C96G A120U", "polymerase ribozyme fitness (log ratio)": "≤ -4.2"}
{"MUTATION DESCRIPTOR": "C10U G50C A64C G65C C93A A142U", "polymerase ribozyme fitness (log ratio)": "≤ -4.2"}
{"MUTATION DESCRIPTOR": "C93U A110G", "polymerase ribozyme fitness (log ratio)": -3.25}
{"MUTATION DESCRIPTOR": "A24U G86A", "polymerase ribozyme fitness (log ratio)": -1.43}
{"MUTATION DESCRIPTOR": "U6A A12C C87G A89U", "polymerase ribozyme fitness (log ratio)": -3.27}
{"MUTATION DESCRIPTOR": "C32A U33G A66G G83A U102G C118G G124C G141C G143U", "polymerase ribozyme fitness (log ratio)": "≤ -4.2"}
{"MUTATION DESCRIPTOR": "C51G G80U G94U", "polymerase ribozyme fitness (log ratio)": "≤ -4.2"}
{"MUTATION DESCRIPTOR": "U77C", "polymerase ribozyme fitness (log ratio)": -2.04}
{"MUTATION DESCRIPTOR": "C36G C95U", "polymerase ribozyme fitness (log ratio)": -3.45}
{"MUTATION DESCRIPTOR": "A47G C87U", "polymerase ribozyme fitness (log ratio)": 0.257}
{"MUTATION DESCRIPTOR": "U6C A49C U55A U104C U146C", "polymerase ribozyme fitness (log ratio)": "≤ -4.2"}
{"MUTATION DESCRIPTOR": "G83U G94C C116U", "polymerase ribozyme fitness (log ratio)": -2.08}
{"MUTATION DESCRIPTOR": "G84A U144G", "polymerase ribozyme fitness (log ratio)": 0.394}
{"MUTATION DESCRIPTOR": "A20C G34A A47G U104G U130G A150G", "polymerase ribozyme fitness (log ratio)": "≤ -4.2"}
{"MUTATION DESCRIPTOR": "A28C C69U", "polymerase ribozyme fitness (log ratio)": "≤ -4.2"}
{"MUTATION DESCRIPTOR": "C54G G80U", "polymerase ribozyme fitness (log ratio)": -3.52}
{"MUTATION DESCRIPTOR": "A17G C96G", "polymerase ribozyme fitness (log ratio)": -1.29}
{"MUTATION DESCRIPTOR": "U9G C32U C38U A49C G58A A60U C87G C95U G133U A142U", "polymerase ribozyme fitness (log ratio)": "≤ -4.2"}
{"MUTATION DESCRIPTOR": "G94A U104C C149U", "polymerase ribozyme fitness (log ratio)": -1.16}
{"MUTATION DESCRIPTOR": "C18G A39G A40U G67A U90C A97G C99U", "polymerase ribozyme fitness (log ratio)": "≤ -4.2"}
{"MUTATION DESCRIPTOR": "C79G G124U U139C", "polymerase ribozyme fitness (log ratio)": "≤ -4.2"}
{"MUTATION DESCRIPTOR": "A30U C38A C75G C85U G141C", "polymerase ribozyme fitness (log ratio)": "≤ -4.2"}
{"MUTATION DESCRIPTOR": "C76G C87G U90A A121C A122U", "polymerase ribozyme fitness (log ratio)": "≤ -4.2"}
{"MUTATION DESCRIPTOR": "U102G G124C G133A A137G G143U", "polymerase ribozyme fitness (log ratio)": "≤ -4.2"}
{"MUTATION DESCRIPTOR": "A26G G81A C95U", "polymerase ribozyme fitness (log ratio)": "≤ -4.2"}
{"MUTATION DESCRIPTOR": "A12G U56A C76A G143U", "polymerase ribozyme fitness (log ratio)": -3.46}
{"MUTATION DESCRIPTOR": "A17G U56A G62C G152A", "polymerase ribozyme fitness (log ratio)": -3.06}
{"MUTATION DESCRIPTOR": "A22C A23G A49C A66G A113U", "polymerase ribozyme fitness (log ratio)": "≤ -4.2"}
{"MUTATION DESCRIPTOR": "C14U A52U C54A G83U C96G A98U", "polymerase ribozyme fitness (log ratio)": -3.86}
{"MUTATION DESCRIPTOR": "U55A A91C", "polymerase ribozyme fitness (log ratio)": "≤ -4.2"}
{"MUTATION DESCRIPTOR": "A20U A39C G48A G94A", "polymerase ribozyme fitness (log ratio)": "≤ -4.2"}
{"MUTATION DESCRIPTOR": "C18U A52U", "polymerase ribozyme fitness (log ratio)": -1.92}
{"MUTATION DESCRIPTOR": "C54U G84C G100C C108A A113U G141U", "polymerase ribozyme fitness (log ratio)": "≤ -4.2"}
{"MUTATION DESCRIPTOR": "G42A C43A G48A G50C A66C C85U", "polymerase ribozyme fitness (log ratio)": "≤ -4.2"}
{"MUTATION DESCRIPTOR": "C93G A97U U145G", "polymerase ribozyme fitness (log ratio)": "≤ -4.2"}
{"MUTATION DESCRIPTOR": "C32G G83A C85G C108G G124A U135G", "polymerase ribozyme fitness (log ratio)": "≤ -4.2"}
{"MUTATION DESCRIPTOR": "C51G A91G G92U U101C", "polymerase ribozyme fitness (log ratio)": "≤ -4.2"}
{"MUTATION DESCRIPTOR": "C36A U56G C85A", "polymerase ribozyme fitness (log ratio)": "≤ -4.2"}
{"MUTATION DESCRIPTOR": "C27U C32G C36U C87G", "polymerase ribozyme fitness (log ratio)": "≤ -4.2"}
{"MUTATION DESCRIPTOR": "G46A U53G", "polymerase ribozyme fitness (log ratio)": -3.49}
{"MUTATION DESCRIPTOR": "A28C C54G C79G C85G U145A", "polymerase ribozyme fitness (log ratio)": "≤ -4.2"}
{"MUTATION DESCRIPTOR": "A64C C85A", "polymerase ribozyme fitness (log ratio)": "≤ -4.2"}
{"MUTATION DESCRIPTOR": "C14U A19U C87U C99A", "polymerase ribozyme fitness (log ratio)": -3.91}
{"MUTATION DESCRIPTOR": "C85A C114U G143A", "polymerase ribozyme fitness (log ratio)": "≤ -4.2"}
{"MUTATION DESCRIPTOR": "G65A C69G U78A U90G C96A G100A C108A U145A", "polymerase ribozyme fitness (log ratio)": "≤ -4.2"}
{"MUTATION DESCRIPTOR": "C96U C131U", "polymerase ribozyme fitness (log ratio)": 0.576}
{"MUTATION DESCRIPTOR": "C79U A97G", "polymerase ribozyme fitness (log ratio)": -3.02}
{"MUTATION DESCRIPTOR": "A49C C76A", "polymerase ribozyme fitness (log ratio)": "≤ -4.2"}
{"MUTATION DESCRIPTOR": "C54G C114U G143C", "polymerase ribozyme fitness (log ratio)": -4.16}
{"MUTATION DESCRIPTOR": "A40G G94C", "polymerase ribozyme fitness (log ratio)": -1.82}
{"MUTATION DESCRIPTOR": "A30U U55G C57A C93U", "polymerase ribozyme fitness (log ratio)": -4.13}
{"MUTATION DESCRIPTOR": "A20U A28U C96G", "polymerase ribozyme fitness (log ratio)": "≤ -4.2"}
{"MUTATION DESCRIPTOR": "C54G U55A A89U C118G A142C", "polymerase ribozyme fitness (log ratio)": -3.87}
{"MUTATION DESCRIPTOR": "G11U C93U A119C C149U", "polymerase ribozyme fitness (log ratio)": -3.06}
{"MUTATION DESCRIPTOR": "A138G", "polymerase ribozyme fitness (log ratio)": -1.9}
{"MUTATION DESCRIPTOR": "A60U C85A U101A A119G U127C", "polymerase ribozyme fitness (log ratio)": "≤ -4.2"}
{"MUTATION DESCRIPTOR": "G83C U146A", "polymerase ribozyme fitness (log ratio)": -0.565}
{"MUTATION DESCRIPTOR": "U6A U7G C36U C85A U144A", "polymerase ribozyme fitness (log ratio)": "≤ -4.2"}
{"MUTATION DESCRIPTOR": "A16U G124U", "polymerase ribozyme fitness (log ratio)": -2.37}
{"MUTATION DESCRIPTOR": "A30U A52G U56G G80C G84U A98C A110U", "polymerase ribozyme fitness (log ratio)": "≤ -4.2"}
